Biological target: T1, CRBN, Q96SW2;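 further: pooled lentiviral library of zinc finger degron-EGFP fusions in mCherry-positive Jurkat cells, FACS-sorted after compound exposure, with degron abundance counted by next-generation sequencing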
T1 chain: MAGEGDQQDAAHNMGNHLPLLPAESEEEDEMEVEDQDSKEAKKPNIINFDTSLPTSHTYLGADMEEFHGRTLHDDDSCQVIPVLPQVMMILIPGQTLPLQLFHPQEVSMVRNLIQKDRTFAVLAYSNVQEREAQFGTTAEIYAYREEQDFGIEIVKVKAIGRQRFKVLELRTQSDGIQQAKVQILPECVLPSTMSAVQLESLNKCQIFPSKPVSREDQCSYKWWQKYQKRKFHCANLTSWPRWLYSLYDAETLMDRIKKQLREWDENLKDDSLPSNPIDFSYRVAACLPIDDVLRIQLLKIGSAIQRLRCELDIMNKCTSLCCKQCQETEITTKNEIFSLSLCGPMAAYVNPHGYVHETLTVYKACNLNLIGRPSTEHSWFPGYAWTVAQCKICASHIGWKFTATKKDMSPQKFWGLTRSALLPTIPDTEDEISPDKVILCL
Experiment: log2 fold change of degron read counts, EGFP-low vs EGFP+ sorted cells (limma voom), compound-induced degradation; higher = more compound-induced degradation of the degron-EGFP fusion; degrons are variants of IKZF1/3 zinc finger 2; compound dose not given here
Settings: Jurkat; 18 h; compound: thalidomide
Whole data set: some 8,300 sequences, median “log2 fold change of degron read counts, EGFP-low vs EGFP+ sorted cells (limma voom), compound-induced degradation” near -1.1, cut for the highest 2% near 3.2. The sample holds the highest values, similar sequences and a random draw of the others, so the mix is not that of the screen.
Param threshold (1) applies to log2 fold change of degron read counts; output Criterion met when value >= threshold, Criterion not met when value < threshold.

Does the sequence FCCDICGAPFTQKGNLLRHIKL [46F_47C_49D_50I_52G_53A_54P_55F_67L_, Q9UKT9] have recorded log2 fold change of degron read counts that is 1 or more?
Criterion not met

State whether the measured log2 fold change of degron read counts reaches 1, counting equality as reaching it, for FECDVCGAHFTQKGNLLRHIKL [46F_47E_49D_50V_52G_53A_54H_55F_67L_, Q9UKT9]
Criterion not met

Could you tell me if the measured log2 fold change of degron read counts of FQCDICGAPFTQKGNLLRHIKL [46F_47Q_49D_50I_52G_53A_54P_55F_67L_, Q9UKT9] reaches 1 or more?
Criterion met

Does the sequence FSCEICGAGFTQKGNLLRHIKL [46F_47S_49E_50I_52G_53A_54G_55F_67L_, Q9UKT9] have recorded log2 fold change of degron read counts that is 1 or more?
Criterion not met

# bool: log2 fold change of degron read counts of FLCDVCGAGFTQKGNLLRHIKL [46F_47L_49D_50V_52G_53A_54G_55F_67L_, Q9UKT9] >= 1
Criterion not met

Answer whether log2 fold change of degron read counts of FFCEICGHVFTQKGNLLRHIKL [46F_47F_49E_50I_52G_53H_54V_55F_67L_, Q9UKT9] is greater than or equal to 1.
Criterion not met

// inclusive: log2 fold change of degron read counts at least 1? input: FVCDICGAPFTQKGNLLRHIKL [46F_47V_49D_50I_52G_53A_54P_55F_67L_, Q9UKT9]
Criterion met

Hello, I need to know if FMCEICGAGFTQKGNLLRHIKL [46F_47M_49E_50I_52G_53A_54G_55F_67L_, Q9UKT9] has measured log2 fold change of degron read counts not below 1. Thanks!
Criterion met

Check this sequence for log2 fold change of degron read counts at or above 1: FSCDQCGAMFTQKGNLLRHIKL [46F_47S_49D_50Q_52G_53A_54M_55F_67L_, Q9UKT9]
Criterion not met

Does the sequence FGCEICGHTFTQKGNLLRHIKL [46F_47G_49E_50I_52G_53H_54T_55F_67L_, Q9UKT9] have recorded log2 fold change of degron read counts that is 1 or more?
Criterion not met

Has FCCEICGAGFTQKGNLLRHIKL [46F_47C_49E_50I_52G_53A_54G_55F_67L_, Q9UKT9] a recorded log2 fold change of degron read counts greater than or equal to 1?
Criterion met

Given FFCEICGHQFTQKGNLLRHIKL [46F_47F_49E_50I_52G_53H_54Q_55F_67L_, Q9UKT9] , state whether its log2 fold change of degron read counts is at least 1.
Criterion not met

Record FKCEICGAGFTQKGNLLRHIKL [46F_47K_49E_50I_52G_53A_54G_55F_67L_, Q9UKT9] ; criterion: log2 fold change of degron read counts no lower than 1. Met?
Criterion not met

Given the entry FICEQCGAEFTQKGNLLRHIKL [46F_47I_49E_50Q_52G_53A_54E_55F_67L_, Q9UKT9] , answer whether its log2 fold change of degron read counts meets or surpasses 1.
Criterion not met

Could you verify whether the entry FVCEICGAGFTQKGNLLRHIKL [46F_47V_49E_50I_52G_53A_54G_55F_67L_, Q9UKT9] shows log2 fold change of degron read counts of no less than 1?
Criterion met
